Source: patent US20190071416A1

# experimental system: SMYD3 (Homo sapiens, UniProt Q9H7B4)
# Sequence (Q9H7B4 whole entry): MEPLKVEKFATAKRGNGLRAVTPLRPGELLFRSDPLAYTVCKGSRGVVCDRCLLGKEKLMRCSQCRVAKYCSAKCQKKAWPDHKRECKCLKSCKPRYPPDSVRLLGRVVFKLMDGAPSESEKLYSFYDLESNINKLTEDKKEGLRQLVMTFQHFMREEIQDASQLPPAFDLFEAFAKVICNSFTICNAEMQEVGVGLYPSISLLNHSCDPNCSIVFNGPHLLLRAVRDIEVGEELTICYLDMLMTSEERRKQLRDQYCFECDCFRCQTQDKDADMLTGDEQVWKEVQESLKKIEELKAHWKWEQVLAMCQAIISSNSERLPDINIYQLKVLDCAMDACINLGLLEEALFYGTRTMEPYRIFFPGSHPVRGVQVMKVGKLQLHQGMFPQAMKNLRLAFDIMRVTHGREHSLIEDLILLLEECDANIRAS
# assay remarks: SMYD3 biochemical assay (MTase-Glo, MAP3K2 peptide substrate)
# recorded conditions: Table 3; MTase assay, MAP3K2 peptide substrate; read-out: IC50
pIC50: −log10 of the molar value.
Cut-off 6 on pIC50, inclusive. At or above means met; below means not met.

Ask | Hello, I need to know if CCCCC(=O)N1CCN(C(=O)c2ccc3c(Cl)ccnc3c2)CC1 [B226] has measured pIC50 not below 6. Thanks!
Reply | not met

Ask | Hello, I need to know if C[C@@H]1CN(C(=O)c2ccc3c(Cl)cc(C4CC4)nc3c2)CCN1C(=O)OCCF [B259] has measured pIC50 not below 6. Thanks!
Reply | not met

Ask | Hello, I need to know if CCCOC(=O)N1CCN(C(=O)c2ccc3c(Cl)cc(-c4ccc(OC)c(F)c4)nc3c2)CC1 [B165] has measured pIC50 not below 6. Thanks!
Reply | met

Ask | Hello, I need to know if CCCOC(=O)N1C2CC1CN(C(=O)c1ccc3c(Cl)c4c(nc3c1)CCCC4)C2 [A019] has measured pIC50 not below 6. Thanks!
Reply | not met

Ask | Hello, I need to know if CCCOC(=O)N1CCN(C(=O)c2ccc3c(Cl)c4c(nc3c2)CCCC4)CC1COC(=O)C(C)C (stereo not shown) [A054] has measured pIC50 not below 6. Thanks!
Reply | not met

Ask | Hello, I need to know if CCCOC(=O)N1CCN(C(=O)c2ccc3c(Cl)c4c(nc3c2)CCCC4)CC1 [A001] has measured pIC50 not below 6. Thanks!
Reply | met

Ask | Hello, I need to know if CCCOC(=O)N1CCN(C(=O)c2ccc3c(Cl)cc(-c4ccc(C)c(CO)c4)nc3c2)CC1 [B159] has measured pIC50 not below 6. Thanks!
Reply | met

Ask | Hello, I need to know if CCCOC(=O)N1CCN(C(=O)c2ccc3c(Cl)c(C)c(-c4ccc(OC)cc4)nc3c2)C[C@@H]1C [B034] has measured pIC50 not below 6. Thanks!
Reply | met
